system: SF-268 CNS; test: NCI tumour cell line growth inhibition, 48 h
metric: TGI

# smi, assay_target, metric, result
measured = [
    ("COc1cc(/C=C2\\N=C(c3ccccc3)N(c3ccc(C(=O)c4ccccc4)cc3N3C(=O)/C(=C/c4cc(OC)c(OC)c(OC)c4)N=C3c3ccccc3)C2=O)cc(OC)c1OC", "SF-268 CNS", "TGI", "> 100 µM"),
    ("C[C@@H]1CC[C@H]2C(CN3CCN(CC4=C(C(F)(F)F)O[C@@H]5O[C@@]6(C)CC[C@H]7[C@H](C)CC[C@@H]4[C@@]57OO6)CC3)=C(C(F)(F)F)O[C@@H]3O[C@@]4(C)CC[C@@H]1[C@]32OO4", "SF-268 CNS", "TGI", "> 100 µM"),
    ("CN(C)c1ccc(/C=N/Nc2ccc(-c3nc4ccccc4[nH]3)cc2)cc1", "SF-268 CNS", "TGI", "39.8 µM"),
    ("Nc1ccccc1C#Cc1ccccc1C#CCCCCO", "SF-268 CNS", "TGI", "> 100 µM"),
    ("Nc1ncc(Cc2nn3c(COc4ccc(Cl)cc4)nnc3s2)s1", "SF-268 CNS", "TGI", "> 100 µM"),
    ("O=C(N/N=C\\c1cc(Cl)ccc1O)N/N=C/c1cc(Cl)ccc1O", "SF-268 CNS", "TGI", "> 100 µM"),
    ("C=C1C(=O)O[C@H]2[C@@H](O)[C@H](C)CCC/C(C)=C/CC[C@@]3(C)O[C@@H]3C[C@@H]12", "SF-268 CNS", "TGI", "22 µM"),
    ("COc1cc(C(N)=O)c(OC)c(OC)c1OC", "SF-268 CNS", "TGI", "> 100 µM"),
]
